Test system: NCI-H226 lung
assay_name: NCI tumour cell line growth inhibition, 48 h
Would you mind labelling by TGI? At or over 30 µM is 1 (yes), under is 0 (no).

| molecule | category |
| --- | --- |
| C[C@H]1C(=O)O[C@@H]2CCN3CC=C(COC(=O)[C@](C)(O)[C@@]1(C)O)[C@H]23 | 1 (yes) |
| CC(Oc1ccc(OCC2CCCCC2)cc1)C(=O)OCC(=O)c1ccc(-c2ccccc2)cc1 (stereo not given) | 1 (yes) |
| COc1ccc(C(O)(CCC(C)C)C(CN2CCOCC2)c2ccc(Cl)cc2)cc1 (stereo not given) | 1 (yes) |
| COc1ccc(/C=C(\C(C)=O)C(=O)Nc2ccccc2)cc1 | 1 (yes) |
| CCC(=O)O[C@H]1CC[C@H]2[C@@H]3CCC4=C/C(=N/OC(=O)c5cccc6cc7ccccc7nc56)CC[C@]4(C)[C@H]3CC[C@]12C | 1 (yes) |
| CS(=O)(=O)Nc1cc(-c2ccc3ncnc(Nc4c(Cl)ccc5c4OCO5)c3c2)cnc1Cl | 0 (no) |
| Nc1n[nH]c(=O)c2c1c(I)cn2C1OC(CO)C(O)C1O (stereo not given) | 0 (no) |
| NCCc1cc(O)c(O)cc1O | 1 (yes) |
| CN1CC[C@@H](c2c(O)cc(O)c3c(=O)cc(-c4ccc(C(F)(F)F)cc4Cl)oc23)[C@@H]1CO | 1 (yes) |
| FC(F)(F)c1ccc2c(c1)nc(-c1ccc(Cl)cc1)n2CC1CCCN2CCCCC12 (stereo not given) | 1 (yes) |
